We begin with a simple list: items and their reported activation.
# Test system: Nuclear hormone receptor DAF-12 (Heterodera glycines), GAL4 fusion
# protocol-text: H. glycines DAF-12 receptor agonists, primary screen, cell-based, luminescence, HEK293, GAL4 fusion, UAS-luciferase (AID 687014);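 further: 0% = DMSO wells and 100% = sodium butyrate wells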
# experimental-parameters: HEK293 GAL4-hgDAF12 UAS-luciferase reporter, agonist luminescence; at 6.8 µM; active compounds read high; normalized to butyrate control
Screen size: about 370,000 compounds; about 6,800 (1.8%) were called active. This is one part of a sample in which actives are shown more often than they occur.
observation-type: activation (%)

COc1ccc(N2CCN(CCNS(=O)(=O)c3ccc([N+](=O)[O-])cc3)CC2)cc1 = -4.01
O=C(NCCCc1ccccc1)c1cc(COc2c(F)cccc2F)on1 = 4.73
CCOC(=O)[C@]12CCCC=C1N(CCCOC)C(=O)[C@@H]2CC(=O)N1CCOCC1 = 0.45
COc1ccc(NCc2nnc(SCc3ccccc3)n2-c2ccc(OC)cc2)cc1 = 1.53
c1ccc(CN=C2Nc3ccccc3CS2)nc1 = 15
COc1ccc(/C=N/Nc2ccccc2C(=O)O)cc1 = 12.8
Cc1ccc(C)c(NC(=O)CCS(=O)(=O)c2ccccc2)c1 = -2.63
COc1ccc(C(=O)NCCSc2ccccc2C)cc1 = 12.8
CCc1c(C)nc2cc(C)[nH]n2c1=O = -1.41
COc1ccc(/C=N/NC(=O)Cn2cc(C(F)(F)F)ccc2=O)cc1 = -5.01
Cc1cc2nc(SCCN3CCOCC3)[nH]c2cc1C = 11.8
COc1ccc(C(=O)C2CCCN(C(=O)c3cc(C)on3)C2)cc1F (configuration not stated) = -1.33
